Values from paper PMC9250534

Target: MDM2 (Homo sapiens)
Sequence (Q00987 whole entry): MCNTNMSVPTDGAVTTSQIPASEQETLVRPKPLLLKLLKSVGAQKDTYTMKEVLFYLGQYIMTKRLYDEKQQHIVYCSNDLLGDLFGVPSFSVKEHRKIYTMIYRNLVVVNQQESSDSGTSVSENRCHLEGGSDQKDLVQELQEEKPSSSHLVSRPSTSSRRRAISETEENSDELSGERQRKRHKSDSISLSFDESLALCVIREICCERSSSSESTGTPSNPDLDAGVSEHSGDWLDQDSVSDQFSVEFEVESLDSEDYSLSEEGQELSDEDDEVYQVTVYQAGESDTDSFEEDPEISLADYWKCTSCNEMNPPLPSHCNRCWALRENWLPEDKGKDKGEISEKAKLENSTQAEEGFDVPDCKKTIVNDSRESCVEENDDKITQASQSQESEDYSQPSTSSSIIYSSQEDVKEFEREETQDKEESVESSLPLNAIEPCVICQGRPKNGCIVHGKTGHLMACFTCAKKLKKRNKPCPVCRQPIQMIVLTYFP
Test: MDM2 binding screen of Libraries 3 and 4: displacement of fluorescent probe F-M8 at 750 nM macrocycle
Settings: Panel b, Library 3: 63 scaffolds combinatorially acylated with 15 carboxylic acids at 30 picomole scale; displacement of fluorescent peptide probe; macrocycle 750 nM
Value type: fraction of fluorescent probe displaced
Kindly provide the number alone.

(Q) Identify the measured fraction of fluorescent probe displaced of `O=C(/C=C/c1ccc(Cl)cc1)NC[C@@H]1NC(=O)C2(CC2)CNC(=O)CCSSCCNC(=O)[C@H](Cc2c[nH]c3ccccc23)NC1=O` for MDM2 (Homo sapiens).
(A) 0.068

(Q) Item `O=C(/C=C/c1ccc2ccccc2c1)NC[C@@H]1NC(=O)C2(CC2)CNC(=O)CCSSCCNC(=O)[C@H](Cc2c[nH]c3cc(Cl)ccc23)NC1=O` with MDM2 (Homo sapiens) - fraction of fluorescent probe displaced?
(A) 0.008

(Q) Observed fraction of fluorescent probe displaced on MDM2 (Homo sapiens) for `O=C1CCSSCCNC(=O)[C@H](Cc2c[nH]c3cc(Cl)ccc23)NC(=O)CN(CCNC(=O)c2cccc(Oc3ccccc3)c2)C(=O)C2(CC2)CN1` , please.
(A) -0.00533

(Q) Lab note: need fraction of fluorescent probe displaced with MDM2 (Homo sapiens) for entry `CN1C(=O)[C@@H](CNC(=O)c2ccc(Cl)cc2)NC(=O)[C@@H]2CN(CCO2)C(=O)CCSSCCNC(=O)[C@@H]1Cc1c[nH]c2ccccc12` , please look it up.
(A) -0.019

(Q) Which measured fraction of fluorescent probe displaced belongs to `O=C1CCSSCCNC(=O)[C@H](Cc2cccc3ccccc23)NC(=O)CN(CCNC(=O)c2ccc(Cl)cc2)C(=O)C2(CC2)CN1` , tested on MDM2 (Homo sapiens)?
(A) -0.012

----------
Can you tell me % thrombin activity, Original screen for the items I'm about to list?
Target: thrombin (Homo sapiens, UniProt P00734)
Construct: consists of two polypeptide chains of 36 (light chain) and 259 amino acid
Test: Thrombin inhibition screen of crude macrocycle reactions (residual thrombin activity, fluorogenic substrate Z-Gly-Gly-Arg-AMC)
Assay type: biochemical
Conditions: 10 µM macrocycle concentration; macrocycles containing acid 14; crude reaction; original screen
Answer with a number only, understood to be in %.

(Q) Lookup: % thrombin activity, Original screen / thrombin (Homo sapiens, UniProt P00734) / `O=C1CCNC(=O)[C@@H](Cc2c[nH]c3ccccc23)NC(=O)[C@@H](CNC(=O)c2ccc(Cl)s2)NC(=O)CCSSCCN1`
(A) 90.8

(Q) Under thrombin (Homo sapiens, UniProt P00734): % thrombin activity, Original screen value of `NC(=O)CC[C@@H]1NC(=O)c2cccc(c2)CNC(=O)CCSSCCNC(=O)[C@H](CNC(=O)c2ccc(Cl)s2)NC1=O` ?
(A) 95.3

(Q) Request - read-out % thrombin activity, Original screen | tested on thrombin (Homo sapiens, UniProt P00734) | compound `O=C1CCSSCCNC(=O)[C@H](Cc2ccccc2)NC(=O)[C@H](CNC(=O)c2ccc(Cl)s2)NC(=O)C2(CC2)CN1`
(A) 70.7

(Q) Which % thrombin activity, Original screen is reported with thrombin (Homo sapiens, UniProt P00734) for this entry: O=C1CCSSCCNC(=O)C2CC(NC(=O)c3ccc(Cl)s3)CN2C(=O)CCNC(=O)C(Cc2ccccc2)N1 (stereo not shown) ?
(A) 95.3

----------
So I've got a bunch of compounds here, and I need their percent residual thrombin activity values.
Target: thrombin (Homo sapiens, UniProt P00734)
Construct: consists of two polypeptide chains of 36 (light chain) and 259 amino acid
Experiment: Thrombin inhibition screen of crude macrocycle reactions (residual thrombin activity, fluorogenic substrate Z-Gly-Gly-Arg-AMC)
Format: biochemical
Conditions: 10 µM macrocycle concentration; crude reactions, Library 1a-l; scaffold AA1-AA2-AA3 combined with 1-16 or '-'
Numbered stars: 1 amine (or outer) side, 2 acyl side, 3 side chain; on linkers, the order of the positions; unused ones are H or OH. Bridge positions count the residues as written; N and C are the ends. Square brackets hold non-standard residues; d marks the D form. Peptide text beside a SMILES is read from it. * marks the point of attachment. Pyrazinoyl(5-oxo-4H) = O=C(c1c[nH]c(=O)cn1)*; 1,2,3Thiadiazole5CO(4-Me) = Cc1nnsc1C(=O)*; Isoorotoyl = O=C(c1c[nH]c(=O)[nH]c1=O)*; Pyrazinecarbonyl = O=C(c1cnccn1)*; Phenoxyacetyl = O=C(COc1ccccc1)*; Cysteamide = C(CS[*:3])N[*:1]; X3 = O=C(Cc1c[nH]c2ccccc12)*; Isovaleryl = CC(C)CC(=O)*; Orn = NCCC[C@H](N)C(=O)O; Bz = O=C(c1ccccc1)*; Mpa = O=C(O)CCS
Answer format: numeric, % implied, no suffix.

(Q) Fill blank: measured percent residual thrombin activity of the compound NC(=O)CC[C@@H]1NC(=O)[C@H](CCCCNC(=O)Cc2c[nH]c3ccccc23)NC(=O)[C@@H]2CCCN2C(=O)CCSSCCNC1=O [B1-D1-Q/12] ([Mpa]PK(X3)Q-Cysteamide; disulfide 1-C) is ____.
(A) 106.242

(Q) For Cc1nnsc1C(=O)NCCCC[C@@H]1NC(=O)[C@H](Cc2ccc(O)cc2)NC(=O)C2(CC2)CNC(=O)CCSSCCNC1=O [B6-Y-D1/15] , what is its reported percent residual thrombin activity?
(A) 105.617

(Q) Look at this compound and give its reported percent residual thrombin activity. O=C1CCSSCCNC(=O)[C@H](Cc2c[nH]c3ccccc23)NC(=O)[C@H](CCCCNC(=O)c2ccc(Cl)s2)NC(=O)c2cccc(c2)CN1 [B5-D1-W/14]
(A) 107.115

(Q) Using the record for O=C1CCSSCCNC(=O)[C@@H]2CCCN2C(=O)[C@H](CCCCNC(=O)c2c[nH]c(=O)[nH]c2=O)NC(=O)[C@H](Cc2c[nH]c3ccccc23)N1 [W-D1-B1/11] ([Mpa]WK(Isoorotoyl)P-Cysteamide; disulfide 1-C) , report its percent residual thrombin activity.
(A) 99.1805

(Q) Suppose we examine the compound CC1NC(=O)CCSSCCNC(=O)C(CCCCNC(=O)c2ccccc2)NC(=O)C2CCCN2C1=O (centres unmarked) [a-B1-D1/1] ([Mpa]APK(Bz)-Cysteamide; disulfide 1-C; configuration not given here) ; what percent residual thrombin activity value has been reported?
(A) 107.016

(Q) I have this compound here, CC(C)[C@H]1NC(=O)[C@H](CCCCNC(=O)COc2ccccc2)NC(=O)[C@@H]2CCCN2C(=O)CCSSCCNC1=O [B1-D1-v/13] ([Mpa]PK(Phenoxyacetyl)[dV]-Cysteamide; disulfide 1-C) , and I need its recorded percent residual thrombin activity.
(A) 123.844

(Q) Sample O=C(Cc1c[nH]c2ccccc12)NCCC[C@@H]1NC(=O)c2ccc(cc2)CNC(=O)[C@H](CO)NC(=O)CCSSCCNC1=O [S-B3-D2/12] — what was its percent residual thrombin activity?
(A) 111.94

(Q) For NCCCC[C@@H]1NC(=O)C2(CC2)CNC(=O)CCSSCCNC(=O)[C@H](CCC(N)=O)NC1=O [B6-D1-Q/-] , what is its reported percent residual thrombin activity?
(A) 103.82

(Q) Returns the measured percent residual thrombin activity for the input compound. Input: CC[C@H](C)[C@@H]1NC(=O)CCSSCCNC(=O)[C@H](CCCCN)NC(=O)c2cccc(c2)CNC1=O [I-B5-D1/-]
(A) 103.325

(Q) Query: percent residual thrombin activity; subject: CC(C)CC(=O)NCCCC[C@@H]1NC(=O)[C@@H]2CCCN2C(=O)CCSSCCNC(=O)[C@@H](C(C)C)NC1=O [B1-D1-v/8] ([Mpa]PK(Isovaleryl)[dV]-Cysteamide; disulfide 1-C)
(A) 112.751

(Q) Could you share which percent residual thrombin activity value was measured for CC(C)C[C@@H]1NC(=O)CCSSCCNC(=O)[C@@H]2CCCN2C(=O)[C@H](CCCCNC(=O)COc2ccccc2)NC1=O [L-D1-B1/13] ([Mpa]LK(Phenoxyacetyl)P-Cysteamide; disulfide 1-C) ?
(A) 112.403

(Q) Given the compound CC(C)[C@@H]1NC(=O)CCSSCCNC(=O)[C@@H]2CCCN2C(=O)[C@H](CCCCNC(=O)c2c[nH]c(=O)cn2)NC1=O [v-D1-B1/9] ([Mpa]VK(Pyrazinoyl(5-oxo-4H))P-Cysteamide; disulfide 1-C) , what is its reported percent residual thrombin activity?
(A) 99.656

(Q) Given the compound O=C1CCSSCCNC(=O)[C@H](Cc2c[nH]c3ccccc23)NC(=O)[C@H](CCCNC(=O)Cc2c[nH]c3ccccc23)NC(=O)C2(CC2)CN1 [B6-D2-W/12] , what is its reported percent residual thrombin activity?
(A) 93.2541

(Q) Which value of percent residual thrombin activity has been reported for CC[C@H](C)[C@@H]1NC(=O)[C@H](CCCNC(=O)c2snnc2C)NC(=O)CCSSCCNC(=O)[C@@H]2CCCN2C1=O [D2-I-B1/15] ([Mpa][Orn](1,2,3Thiadiazole5CO(4-Me))IP-Cysteamide; disulfide 1-C) in the records?
(A) 108.604

(Q) Give the measured percent residual thrombin activity of CC(C)C1NC(=O)C(CCCCNC(=O)c2cnccn2)NC(=O)C2CCCN2C(=O)CCSSCCNC1=O (centres unmarked) [B1-D1-v/2] ([Mpa]PK(Pyrazinecarbonyl)V-Cysteamide; disulfide 1-C; configuration not given here) .
(A) 115.134

(Q) Sample O=C1CCSSCCNC(=O)[C@@H](Cc2ccc(O)cc2)NC(=O)CCNC(=O)[C@H](CCCCNC(=O)c2c[nH]c(=O)cn2)N1 [D1-B2-y/9] — what was its percent residual thrombin activity?
(A) 109.951

(Q) Suppose we examine the compound O=C(NCCC[C@@H]1NC(=O)[C@H](CO)NC(=O)[C@@H]2CCCN2C(=O)CCSSCCNC1=O)c1ccccc1 [B1-s-D2/1] ([Mpa]PS[Orn](Bz)-Cysteamide; disulfide 1-C) ; what percent residual thrombin activity value has been reported?
(A) 108.892

(Q) Item CC(C)[C@@H]1NC(=O)c2ccc(cc2)CNC(=O)CCSSCCNC(=O)[C@H](CCCCNC(=O)c2c[nH]c(=O)cn2)NC1=O [B3-V-D1/9] has what recorded percent residual thrombin activity?
(A) 107.378

(Q) Please look up its percent residual thrombin activity: NC(=O)CC[C@@H]1NC(=O)[C@H](CCCCNC(=O)COc2ccccc2)NC(=O)CCSSCCNC(=O)[C@@H]2CCCN2C1=O [D1-Q-B1/13] ([Mpa]K(Phenoxyacetyl)QP-Cysteamide; disulfide 1-C)
(A) 104.037

(Q) Consider the compound O=C(NCCCC[C@@H]1NC(=O)[C@@H]2CCCN2C(=O)CCSSCCNC(=O)[C@@H](Cc2ccc(O)cc2)NC1=O)c1c[nH]c(=O)cn1 [B1-D1-y/9] ([Mpa]PK(Pyrazinoyl(5-oxo-4H))[dY]-Cysteamide; disulfide 1-C) and give its measured percent residual thrombin activity.
(A) 107.785
